- TARGET DESC: MurA enzyme from E. coli (Escherichia coli, UniProt P0A749)
- Sequence (P0A749 whole entry): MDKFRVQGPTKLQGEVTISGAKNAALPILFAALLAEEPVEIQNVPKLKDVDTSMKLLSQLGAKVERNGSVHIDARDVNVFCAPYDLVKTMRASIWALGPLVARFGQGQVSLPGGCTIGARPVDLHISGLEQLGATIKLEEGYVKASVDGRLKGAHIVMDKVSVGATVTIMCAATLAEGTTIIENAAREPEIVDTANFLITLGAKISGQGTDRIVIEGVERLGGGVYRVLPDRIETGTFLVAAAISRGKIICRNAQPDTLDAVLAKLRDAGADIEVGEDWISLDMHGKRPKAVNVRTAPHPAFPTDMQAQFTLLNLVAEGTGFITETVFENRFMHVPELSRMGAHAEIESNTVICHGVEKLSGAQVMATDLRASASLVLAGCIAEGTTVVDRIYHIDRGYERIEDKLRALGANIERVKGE
- EXPERIMENTAL PROTOCOL: MurA inhibition assay (malachite green, orthophosphate release)
- Format: biochemical
- CONDITION INFO: 100 μM, without preincubation; read-out: RA% (residual activity), 0 min
- Procedure: To determine the inhibition of MurA, the colorimetric assay with malachite green was used to measure the release of orthophosphate generated during the reaction.[30] […] The reaction was stopped after a 15 min incubation at 37 °C by adding the Biomol reagent (100 μL, Enzo Life Sciences, New York), and the absorbance was measured after 5 min at 650 nm using a microplate reader (BioTek, Synergy H4). […]
// reported remaining activity at 100 µM for each item listed
MEASUREMENT NAME: remaining activity at 100 µM (%)

COMPOUND	DISPLAY UNIT	MEASURED
C[C@@H]1O[C@@H](Oc2c(-c3ccc(O)c(O)c3)oc3cc(O)cc(O)c3c2=O)[C@H](O)[C@H](O)[C@H]1O [Compound 10, quercitrin]	%	66
O=C1c2c(O)cc(O)cc2OC(c2ccc(O)c(O)c2)C1O (centres unmarked) [Compound 47, taxifolin]	%	98
COc1cc(O)cc2c1C(=O)C[C@@H](c1ccccc1)O2 [Compound 48, (−)-alpinetin]	%	66
O=c1cc(-c2ccccc2)oc2cc(O)c(O)c(O)c12 [Compound 26, baicalein]	%	66
O=c1cc(-c2ccc(O)c(O)c2)oc2cc(O)cc(O)c12 [Compound 17, luteolin]	%	68

* * *

- TARGET DESC: MurA enzyme from E. coli (Escherichia coli, UniProt P0A749)
- EXPERIMENTAL PROTOCOL: MurA dilution assay
- Assay type: biochemical
- CONDITION INFO: compound at 10 times IC50, 30 min preincubation, then 100-fold dilution
One threshold, 90%, splits the recorded RA% (residual activity), dilution assay values: lower ones are yes (1), equal or higher ones are no (0).

COMPOUND	TARGET DESC	ASSIGNED LABEL
O=c1c(O)c(-c2ccc(O)c(O)c2)oc2cc(O)cc(O)c12 [Compound 9, quercetin]	MurA enzyme from E. coli (Escherichia coli, UniProt P0A749)	no (0)
O=c1c(O)c(-c2ccc(O)c(O)c2)oc2cc(O)ccc12 [Compound 2, fisetin]	MurA enzyme from E. coli (Escherichia coli, UniProt P0A749)	no (0)
O=c1cc(-c2ccccc2)oc2c(O)c(O)ccc12 [Compound 25, 7,8-dihydroxyflavone]	MurA enzyme from E. coli (Escherichia coli, UniProt P0A749)	no (0)
O=c1cc(-c2ccccc2)oc2cc(O)c(O)c(O)c12 [Compound 26, baicalein]	MurA enzyme from E. coli (Escherichia coli, UniProt P0A749)	yes (1)
O=c1c(O)c(-c2cc(O)c(O)c(O)c2)oc2cc(O)cc(O)c12 [Compound 4, myricetin]	MurA enzyme from E. coli (Escherichia coli, UniProt P0A749)	yes (1)
O=C1c2c(O)cc(O)cc2O[C@H](c2cc(O)c(O)c(O)c2)[C@H]1O [Compound 49, ampelopsin]	MurA enzyme from E. coli (Escherichia coli, UniProt P0A749)	no (0)
COc1cc(O)cc2c1C(=O)C[C@@H](c1ccccc1)O2 [Compound 48, (−)-alpinetin]	MurA enzyme from E. coli (Escherichia coli, UniProt P0A749)	no (0)
O=C1c2c(O)cc(O)cc2OC(c2ccc(O)c(O)c2)C1O (centres unmarked) [Compound 47, taxifolin]	MurA enzyme from E. coli (Escherichia coli, UniProt P0A749)	no (0)
COc1cc(O)c2c(=O)c(O)c(-c3ccc(O)c(O)c3)oc2c1 [Compound 8, rhamnetin]	MurA enzyme from E. coli (Escherichia coli, UniProt P0A749)	yes (1)

Every entry's value here was drawn from paper PMC10500568.
